// data source = patent US20240116985A1

- target-desc: full-length beta-Catenin (Uniprot ID P35222) (Homo sapiens)
- Construct: 10 nM full-length beta-Catenin (Uniprot ID P35222)
- Sequence (P35222 whole entry): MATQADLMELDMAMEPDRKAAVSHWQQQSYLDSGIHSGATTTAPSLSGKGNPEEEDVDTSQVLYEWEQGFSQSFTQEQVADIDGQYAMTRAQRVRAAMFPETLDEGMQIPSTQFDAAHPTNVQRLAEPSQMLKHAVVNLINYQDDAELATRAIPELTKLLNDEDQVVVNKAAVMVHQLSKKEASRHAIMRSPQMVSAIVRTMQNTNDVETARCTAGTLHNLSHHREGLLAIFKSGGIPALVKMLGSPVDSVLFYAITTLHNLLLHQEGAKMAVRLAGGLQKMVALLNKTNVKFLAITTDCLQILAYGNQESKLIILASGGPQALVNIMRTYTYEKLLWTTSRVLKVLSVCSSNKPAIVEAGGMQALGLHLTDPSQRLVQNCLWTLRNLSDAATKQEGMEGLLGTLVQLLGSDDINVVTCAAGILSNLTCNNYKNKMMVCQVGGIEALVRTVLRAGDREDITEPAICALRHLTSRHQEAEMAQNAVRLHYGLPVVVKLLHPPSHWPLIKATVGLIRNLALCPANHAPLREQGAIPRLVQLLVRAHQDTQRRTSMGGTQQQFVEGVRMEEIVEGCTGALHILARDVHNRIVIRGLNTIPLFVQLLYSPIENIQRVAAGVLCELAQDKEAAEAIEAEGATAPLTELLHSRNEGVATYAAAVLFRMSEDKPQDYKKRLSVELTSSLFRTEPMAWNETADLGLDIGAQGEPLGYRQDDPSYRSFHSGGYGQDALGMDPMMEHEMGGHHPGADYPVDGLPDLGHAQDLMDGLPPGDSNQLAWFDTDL
- assay-remarks: Fluorescence polarization IC50 (beta-catenin / 5FAM-TCF4 10-53 competition)
- Assay type: binding
- condition-details: read-out: beta-Catenin FP IC50
pIC50: −log10 of the molar value.
Response key: 1 (yes) means pIC50 >= 8; 0 (no) means pIC50 < 8.

* CC(=O)N1CCC[C@]12CC=CCCCC1(CCCC=CCCCCCC[C@@](C)(C(=O)N[C@@H](Cc3ccccc3Cl)C(=O)N[C@@H](Cc3csc4ccccc34)C(=O)N[C@H](C(N)=O)[C@@H](C)O)NC(=O)[C@H]([C@@H](C)O)NC(=O)[C@H](Cc3ccccc3)NC(=O)[C@H](C)NC(=O)[C@H](C)NC(=O)[C@H](CC(=O)O)NC(=O)[C@H](CC(=O)O)NC1=O)NC(=O)[C@H](CC(C)(C)C)NC(=O)[C@H](CC(=O)O)NC2=O (some centres unmarked) [I-1090] | 0 (no)
* CC(=O)N1CCC[C@]12CC=CCCCC1(CCCC=CCCCOC(=O)N3CC[C@@](C(=O)N[C@@H](Cc4ccccc4Cl)C(=O)N[C@@H](Cc4csc5ccccc45)C(=O)N[C@@H](CCC(N)=O)C(N)=O)(C3)NC(=O)[C@H](CC(N)=O)NC(=O)[C@H](Cc3ccccc3)NC(=O)[C@H](Cc3ccccc3)NC(=O)[C@H](C)NC(=O)[C@H](CN(CC(=O)O)CC(F)(F)F)NC(=O)[C@H](CC(=O)O)NC1=O)NC(=O)[C@H](CC(C)(C)C)NC(=O)[C@H](CC(=O)O)NC2=O (some centres unmarked) [I-1003] | 0 (no)
* CC(=O)N1CCC[C@]12CC=CCCCC1(CCCC=CCCCOC(=O)N3CC[C@@](C(=O)N[C@@H](Cc4ccsc4)C(=O)N[C@@H](Cc4csc5ccccc45)C(=O)N[C@@H](CCC(N)=O)C(N)=O)(C3)NC(=O)[C@H](CCC(N)=O)NC(=O)[C@H](Cc3ccccc3)NC(=O)[C@H](C)NC(=O)[C@H](C)NC(=O)[C@H](CC(=O)O)NC(=O)[C@H](CC(=O)O)NC1=O)NC(=O)[C@H](CC(C)(C)C)NC(=O)[C@H](CC(=O)O)NC2=O (some centres unmarked) [I-763] | 1 (yes)
